Test system: T-47D breast
Assay procedure: NCI-60 one-dose screen, 48 h
Particulars: 10 µM unless noted
This is part of a sample that, as a whole, favours compounds with a hit. Of some 83,000 tested, about 20% had one in any assay. Calls of active or inactive are those of the source. Rule for the calls: active = growth percent below 10; inactive = the rest.
# output must be one of TRUE for active, FALSE for inactive

Compound	Target	Class label
CCNc1cc(-c2cccc(OC(F)(F)F)c2)nc2ccc(N3CCCC3)cc12	T-47D breast	TRUE
CCOC(=O)c1[nH]c(=O)c2c(C)nc(-c3ccccc3)cc2c1O	T-47D breast	FALSE
COc1ccc(C(=O)Nc2ncc(Cc3ccc(F)cc3)s2)cc1	T-47D breast	FALSE

// param item: O=C(NCCCN1CCOCC1)c1cccc(N2C(=O)/C(=C/c3ccc(F)cc3)SC2=S)c1 ; yields the recorded call
FALSE
